# System: Raft liposomes
# TEST: Disrafter-Liposome Raftophile Assay (D-LRA)
# MEASUREMENT_SETUP: test compound 100 μM; perylene as marker
PARAMETER: Disrafting Activity [%]

COMPOUND	MEASUREMENT
CCCCCCCCCCCCC/C=C/[C@@H](OC)[C@H](CO)NC(=O)COCCOCCOCCOCCOC [Compound 10v]	96.1%
CCCCCCCCCCCCC/C=C/[C@@H](O)[C@H](CO)NC(=O)COCCOC [Compound 10h]	72.2%
CCCCCCCCCCCCC/C=C/[C@@H](O)[C@H](CO)NCCCCCCCCCCCCCCCC [Compound 10n]	94.8%
CCCCCCCCCCCCC/C=C/[C@@H](O)[C@H](CO)NC(=O)CCOCCOCCOCCOCCN [Compound 10w]	53.1%
CCCCCCCCCCCCC/C=C/[C@H](O)[C@H](CO)NCCCCCCCCCCCCCCCC [Compound 10o]	91.0%
CCCCCCCCCCCCC/C=C/[C@@H](O)[C@H](CO)NC(=O)COC [Compound 10u]	97.0%
CCCCCCCCCCCCCC=CC(O)C(CO)NC(=O)COCCOCCOCCOCCOC (stereo not drawn) [Compound 10g]	89.3%
CCCCCCCCCCCCC/C=C/[C@@H](OC)[C@H](CO)NC(=O)CCCCC [Compound 10k]	98.6%
CCCCCCCCCCCCC/C=C/[C@@H](O)[C@H](CO)NC(=O)COCCOC [Compound 10a]	99.2%
